Listing of recorded phosphorylation enrichment by entry.
System: AncSZ;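 note: 11-residue human phosphosite peptides and single-mutation variants displayed on the E. coli surface, counted by deep sequencing, each peptide's frequency after selection divided by its frequency in the unselected input library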;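 note: frequency after pTyr selection over input frequency; kinase dosed for 20-30% of maximal phosphorylation in three min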
Test: phosphorylation enrichment, bacterial display (enrichment ratio); higher = better substrate or ligand; peptides without Tyr show the background
Answer with a number only.

>>> meas_value("VSLEAYCKHKY [RXRA_Y403_A398V]")
1.01

**Q:** Quote phosphorylation enrichment reported for RPCVVYGGADI [DDX3X_Y301] please.
**A:** 1

**Q:** Query phosphorylation enrichment for PDMHSYMVRFN [GRIN2D_Y732_YF]
**A:** 0.991

**Q:** Return phosphorylation enrichment (reported value) for this sequence: KLPDAYERFIL [G6PD_Y437_L440F]
**A:** 0.985

**Q:** Annotate the sequence NTADFYDLFGG [PTPN11_Y63_G60A_YF] with its measured phosphorylation enrichment.
**A:** 0.993
